System: NCI/ADR-RES
Experiment: Inhibitory activity against MCF-7/adr cell line using MTT assay
Assay type: functional, cell-based
Settings: Homo sapiens
MEASURE: pIC50
Numbers only, as −log10 of the molar value.

Quote NCI/ADR-RES pIC50 for entry `Nc1ccc2c(c1)Nc1c3ccccc3nc3cccc-2c13` . 6.45

Quote NCI/ADR-RES pIC50 for entry `COc1cc(NS(C)(=O)=O)ccc1Nc1c2ccccc2nc2ccccc12` . 5.93

Quote NCI/ADR-RES pIC50 for entry `c1ccc2c(c1)Nc1cccc3cc4[n+](c-2c13)CCC4` . 6.78

Quote NCI/ADR-RES pIC50 for entry `Cc1ccc2c(c1)-c1cccc3nc4ccccc4c(c13)N2` . 5.92

Look at each molecule and report its pIC50.
1. c1ccc2c(c1)Nc1c3ccccc3nc3cccc-2c13
2. Clc1ccc2c(c1)-c1cccc3nc4ccccc4c(c13)N2
3. N#CCCCc1cnc2c3c(cccc13)Nc1ccccc1-2

1: 6.20; 2: 5.20; 3: 6.21
